# t1/2 per record follows
biological target: MERS RBD-hFc (MERS-CoV (isolate EMC/2012)); assay: SPR Biacore, captured mAb, 37 C

Qu. Query t1/2 for H1H15208P (antibody, V domains shown) VH: EVQLVESGGDLVQPGGSLRLSCTASGFTFSNYEMNWVRQAPEKGLDWVSFISSSGGAIYYADSVKGRFTISRDNAKNSLYLQMNSLRAEDSAIYFCARSDSGGNSRYWGQGTLVTVSS VL: DIQMTQSPSSVSASVGDRVTVTCRASQDISNWLVWYQQKPGKAPKFLIYAASSLQSGVPSRFSGSGSGTDFTLTISSLQPEDFATYYCQQANSFPPTFGGGTKVEIK
Ans. 22 min

Further cases:
Qu. Consider the binder H2aM15278N (antibody, V domains shown) VH: QVQLVQSGAEVKKPGASVKVSCKASGYTFTSHGISWVRQAPGQGFEWMGWIGTYNSNTDYAQNFQGRVTMTTDTSTSTAYMELRNLRSDDTAVYYCARERGPYYGMDVWGQGTTVTVSS VL: EIVLAQSPGTLSLSPGERATLSCRASQSVNSNYLAWYQQKPGQAPRLLIYGASSRATGIPDRFSGSGSGTDFTLTISRLEPEDFAVYYCQQYGNSLTFGPGTKVDFK . State its measured t1/2.
Ans. 10 min

Qu. For H2aM15287N (antibody, V domains shown) VH: QLQLQESGPGLVKPSETLSLTCTVSGGSISSGNYYWGWIRQPPGKGLEWFGTIYYSGSTYYNPSLKSRVTISVDTSKNQFSLKLSSVTAADTAVYYCARRAAVGHFDYWGQGTLVTVSS VL: DIQMTQSPSTLSASVGDRVTITCRASQSISTWLAWYQQKPGKAPKLLIYEASSLESGVPSRFSGSGFGTEFTLTISRLQPDDFATYFCQQYNTYWTFGQGTKVEIK , write its t1/2.
Ans. 6 min
